TESTED_ON: Substance-K receptor (Rattus norvegicus)
ASSAY_NAME: Compound was evaluated for antagonism of contractile response of rat colon muscularis mucosae (RC) at Tachykinin receptor 2
Type: functional, tissue-based
TEST_CONDITIONS: Muscularis mucosa
Square brackets hold non-standard residues; d marks the D form. Peptide text beside a SMILES is read from it. * marks the point of attachment. Nle = CCCC[C@H](N)C(=O)O; Bz = O=C(c1ccccc1)*
Tick label 1 if pKB is 8 or greater. Tick label 0 if pKB is less than 8.

MOLECULE | CATEGORY
CCCC[C@H](NC(=O)[C@@H]1CCCN1C(=O)[C@H]1CCCN1C(=O)[C@H](Cc1ccccc1)NC(=O)[C@@H](Cc1c[nH]c2ccccc12)NC(=O)[C@H](C)NC(=O)[C@H](C)NC(=O)c1ccccc1)C(N)=O (Bz-AA[dW]F[dP]P[Nle]-NH2) | label 1
CCCC[C@H](NC(=O)[C@@H]1CCCN1C(=O)[C@H]1CCCN1C(=O)[C@H](Cc1ccccc1)NC(=O)[C@@H](Cc1c[nH]c2ccccc12)NC(=O)[C@H](C)NC(=O)[C@H](CCCCN)NC(=O)OC(C)(C)C)C(N)=O | label 0
CCCC[C@H](NC(=O)[C@@H]1CCCN1C(=O)[C@H]1N(C(=O)[C@H](Cc2ccccc2)NC(=O)[C@@H](Cc2c[nH]c3ccccc23)NC(=O)[C@H](C)NC(=O)[C@@H](N)CCCN=C(N)N)CSC1(C)C)C(N)=O | label 0

Turning now to a further record.
Given the entry CCCC[C@H](NC(=O)[C@@H]1CCCN1C(=O)[C@H]1CCCN1C(=O)[C@H](Cc1ccccc1)NC(=O)[C@@H](Cc1c[nH]c2ccccc12)NC(=O)[C@H](C)NC(=O)[C@H](CCC(N)=O)NC(=O)c1ccccc1)C(N)=O , answer whether its pKB meets or surpasses 8.
label 1

* * *

TESTED_ON: Substance-P receptor (Cavia porcellus)
ASSAY_NAME: Compound was evaluated for antagonism of contractile response of guinea pig ileum longitudinal smooth muscle (GPI) at tachykinin receptor 1
Format: functional, tissue-based
PARAMETER: pKB

MOL_SMILES | pKB
CCCC[C@H](NC(=O)[C@@H]1CCCN1C(=O)[C@H]1CCCN1C(=O)[C@H](Cc1ccccc1)NC(=O)[C@@H](Cc1c[nH]c2ccccc12)NC(=O)[C@H](C)NC(=O)[C@@H](N)CCCN=C(N)N)C(N)=O | 4.7
CCCC[C@H](NC(=O)[C@H](CC(C)C)NC(=O)[C@@H](Cc1c[nH]c2ccccc12)NC(=O)[C@H](Cc1ccccc1)NC(=O)[C@@H](Cc1c[nH]c2ccccc12)NC(=O)[C@H](C)NC(=O)[C@H](CCCN=C(N)N)NC(=O)OC(C)(C)C)C(N)=O | 6.9
CCCC[C@H](NC(=O)[C@H](CC(C)C)NC(=O)[C@@H](Cc1c[nH]c2ccccc12)NC(=O)[C@H](Cc1ccccc1)NC(=O)[C@@H](Cc1c[nH]c2ccccc12)NC(=O)[C@H](CCC(N)=O)NC(=O)[C@H](CCCN=C(N)N)NC(=O)OC(C)(C)C)C(N)=O | 7.1

# get_value(readout='pKB', item= CCCC[C@H](NC(=O)[C@@H]1CCCN1C(=O)[C@H]1CCCN1C(=O)[C@H](Cc1ccccc1)NC(=O)[C@H](Cc1ccccc1)NC(=O)[C@H](C)NC(=O)[C@@H](N)CCCN=C(N)N)C(N)=O )
< 4.6

* * *

TESTED_ON: Substance-P receptor (Cavia porcellus) (UniProt P30547)
Sequence (P30547 whole entry): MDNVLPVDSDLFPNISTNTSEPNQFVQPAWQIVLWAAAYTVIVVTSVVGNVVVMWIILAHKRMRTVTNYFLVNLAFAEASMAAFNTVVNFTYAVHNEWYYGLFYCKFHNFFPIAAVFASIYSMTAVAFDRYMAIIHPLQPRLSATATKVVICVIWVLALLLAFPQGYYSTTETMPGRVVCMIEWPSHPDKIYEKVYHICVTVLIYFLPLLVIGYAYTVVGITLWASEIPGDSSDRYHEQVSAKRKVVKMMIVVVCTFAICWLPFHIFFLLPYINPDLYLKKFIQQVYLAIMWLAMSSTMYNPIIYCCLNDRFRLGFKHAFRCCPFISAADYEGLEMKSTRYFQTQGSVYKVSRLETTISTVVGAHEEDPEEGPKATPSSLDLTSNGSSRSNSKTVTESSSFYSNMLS
ASSAY_NAME: Compound was evaluated for antagonism of contractile response of guinea pig ileum longitudinal smooth muscle (GPI) at Tachykinin receptor 1
Assay type: functional, tissue-based
Square brackets hold non-standard residues; d marks the D form. Peptide text beside a SMILES is read from it. * marks the point of attachment. Nle = CCCC[C@H](N)C(=O)O; Bz = O=C(c1ccccc1)*
PARAMETER: pKB
Answers are plain numbers.

Worked set:
MOLECULE | TESTED_ON | PARAMETER | DATA_VALUE
CCCC[C@H](NC(=O)[C@@H]1CCCN1C(=O)[C@H]1CCCN1C(=O)[C@H](Cc1ccccc1)NC(=O)[C@@H](Cc1c[nH]c2ccccc12)NC(=O)[C@H](C)NC(=O)[C@H](CCCCN)NC(=O)OC(C)(C)C)C(N)=O | Substance-P receptor (Cavia porcellus) (UniProt P30547) | pKB | 4.8
CCCC[C@H](NC(=O)[C@@H]1CCCN1C(=O)[C@H]1CCCN1C(=O)[C@H](Cc1ccccc1)NC(=O)[C@@H](Cc1c[nH]c2ccccc12)NC(=O)[C@H](C)NC(=O)[C@H](CCC(N)=O)NC(=O)OC(C)(C)C)C(N)=O | Substance-P receptor (Cavia porcellus) (UniProt P30547) | pKB | 5.6

Dear reader, for each entry below, please note its pKB.
1. CCCC[C@H](NC(=O)[C@@H]1CCCN1C(=O)[C@H]1CCCN1C(=O)[C@H](Cc1ccccc1)NC(=O)[C@@H](Cc1c[nH]c2ccccc12)NC(=O)[C@H](C)NC(=O)[C@H](C)NC(=O)OC(C)(C)C)C(N)=O
2. CCCC[C@H](NC(=O)[C@@H]1CCCN1C(=O)[C@H]1CCCN1C(=O)[C@H](Cc1ccccc1)NC(=O)[C@@H](Cc1c[nH]c2ccccc12)NC(=O)[C@H](C)NC(=O)[C@H](CCC(N)=O)NC(=O)c1ccccc1)C(N)=O
3. CCCC[C@H](NC(=O)[C@@H]1CCCN1C(=O)[C@H]1N(C(=O)[C@H](Cc2ccccc2)NC(=O)[C@@H](Cc2c[nH]c3ccccc23)NC(=O)[C@H](C)NC(=O)[C@@H](N)CCCN=C(N)N)CSC1(C)C)C(N)=O
4. CCCC[C@H](NC(=O)[C@@H]1CCCN1C(=O)[C@H]1CCCN1C(=O)[C@H](Cc1ccccc1)NC(=O)[C@@H](Cc1c[nH]c2ccccc12)NC(=O)[C@H](C)NC(=O)[C@H](C)NC(=O)c1ccccc1)C(N)=O (Bz-AA[dW]F[dP]P[Nle]-NH2)

1. 5.5
2. 6.6
3. 4.7
4. 6.4

* * *

TESTED_ON: Substance-P receptor (Cavia porcellus)
ASSAY_NAME: Compound was evaluated for antagonism of contractile response of guinea pig ileum longitudinal smooth muscle (GPI) at tachykinin receptor 1
Type: functional, tissue-based
PARAMETER: pKB
One number for each entry.

Worked set:
MOL_SMILES | pKB
CCCC[C@H](NC(=O)[C@@H]1CCCN1C(=O)[C@H]1CCCN1C(=O)[C@H](Cc1ccccc1)NC(=O)[C@H]1CCCN1C(=O)[C@H](C)NC(=O)[C@H](CCCN=C(N)N)NC(=O)OC(C)(C)C)C(N)=O | 4.5
CCCC[C@H](NC(=O)[C@@H]1CCCN1C(=O)[C@H]1CCCN1C(=O)[C@H](Cc1ccccc1)NC(=O)[C@@H](Cc1c[nH]c2ccccc12)NC(=O)[C@H](C)NC(=O)[C@H](CCCN=C(N)N)NC(=O)OC(C)(C)C)C(N)=O | 5.8
CCCC[C@H](NC(=O)[C@@H]1CCCN1C(=O)[C@H]1CCCN1C(=O)[C@H](Cc1ccccc1)NC(=O)[C@@H](Cc1c[nH]c2ccccc12)NC(=O)[C@H](C)NC(=O)[C@@H](CCCN=C(N)N)NC(=O)OC(C)(C)C)C(N)=O | 5.7

Dear reader, for each entry below, please note its pKB.
1. C[C@H](NC(=O)[C@H](CCCN=C(N)N)NC(=O)OC(C)(C)C)C(=O)N[C@H](Cc1c[nH]c2ccccc12)C(=O)N[C@@H](Cc1ccccc1)C(=O)N1CCC[C@@H]1C(=O)N1CCC[C@H]1C(=O)NCC(N)=O
2. CCCC[C@H](NC(=O)[C@@H]1CCCN1C(=O)[C@H]1CCCN1C(=O)[C@H](Cc1ccccc1)NC(=O)[C@@H](Cc1c[nH]c2ccccc12)NC(=O)[C@H](C)NC(=O)[C@H](CCC/N=C(\N)N[N+](=O)[O-])NC(=O)OC(C)(C)C)C(N)=O

[5.3, 5.5]

# get_value(readout='pKB', item= CCCC[C@H](NC(=O)[C@@H]1CCCN1C(=O)CNC(=O)[C@H](Cc1ccccc1)NC(=O)[C@@H](Cc1c[nH]c2ccccc12)NC(=O)[C@H](C)NC(=O)[C@@H](N)CCCN=C(N)N)C(N)=O )
4.8

* * *

TESTED_ON: Substance-P receptor (Cavia porcellus)
ASSAY_NAME: Compound was evaluated for antagonism of contractile response of guinea pig ileum longitudinal smooth muscle (GPI) at tachykinin receptor 1
Type: functional, tissue-based
Tick TRUE if pKB is 6 or greater. Tick FALSE if pKB is less than 6.

Please review the entries below; each comes with its answer.
MOL_SMILES | CATEGORY
CCCC[C@H](NC(=O)[C@H](CC(C)C)NC(=O)[C@@H](Cc1c[nH]c2ccccc12)NC(=O)[C@H](Cc1ccccc1)NC(=O)[C@@H](Cc1c[nH]c2ccccc12)NC(=O)[C@H](CCC(N)=O)NC(=O)[C@@H](N)CCCN=C(N)N)C(N)=O | TRUE
CCCCCNC(=O)[C@@H]1CCCN1C(=O)[C@H]1CCCN1C(=O)[C@H](Cc1ccccc1)NC(=O)[C@@H](Cc1c[nH]c2ccccc12)NC(=O)[C@H](C)NC(=O)[C@H](CCCN=C(N)N)NC(=O)OC(C)(C)C | FALSE
CCCC[C@H](NC(=O)[C@@H]1CCCN1C(=O)[C@H]1CCCN1C(=O)[C@H](Cc1ccccc1)NC(=O)[C@@H](Cc1c[nH]c2ccccc12)NC(=O)[C@H](C)NC(=O)[C@H](CCCN=C(N)N)NC(=O)OCc1ccccc1)C(N)=O | TRUE
CCCC[C@H](NC(=O)[C@@H]1CCCN1C(=O)[C@H]1CCCN1C(=O)[C@H](Cc1ccccc1)NC(=O)[C@@H](Cc1c[nH]c2ccccc12)NC(=O)[C@H](C)NC(=O)[C@H](CCCN=C(N)N)NC(C)=O)C(N)=O | FALSE

Turning now to a further record.
Given the entry CCCC[C@H](NC(=O)[C@@H]1CCCN1C(=O)[C@H]1CCCN1C(=O)[C@H](Cc1ccccc1)NC(=O)[C@@H](C)NC(=O)[C@H](C)NC(=O)[C@H](CCCN=C(N)N)NC(=O)OC(C)(C)C)C(N)=O , answer whether its pKB meets or surpasses 6.
FALSE

Provenance of the data: ChEMBL document CHEMBL1125477
